- System: castrated male rats (levator ani, seminal vesicules, prostate)
- assayExplanation: Anabolisant-androgenic activity, Hershberger technique slightly modified (castrated rats, oral)
- Type: in vivo, rat
- conditionSummary: daily dose 10 μg/rat, oral, 10 days

| entrySmiles | experimentalSystem | readoutUnit | Prostate weight |
| --- | --- | --- | --- |
| C[C@]12C=CC3=C4CCC(=O)C=C4CC[C@H]3[C@@H]1CC[C@@H]2OCC1CC1 | castrated male rats (levator ani, seminal vesicules, prostate) | mg | 18.4 |
| CC(C)CO[C@H]1CC[C@H]2[C@@H]3CCC4=CC(=O)CCC4=C3C=C[C@]12C | castrated male rats (levator ani, seminal vesicules, prostate) | mg | 13.5 |
| CC(C)=CCO[C@H]1CC[C@H]2[C@@H]3CCC4=CC(=O)CCC4=C3C=C[C@]12C | castrated male rats (levator ani, seminal vesicules, prostate) | mg | 12.8 |
| CCCCCO[C@H]1CC[C@H]2[C@@H]3CCC4=CC(=O)CCC4=C3C=C[C@]12C | castrated male rats (levator ani, seminal vesicules, prostate) | mg | 27.7 |
